Measured values drawn from ChEMBL document CHEMBL1136439 for this set.

species on record: Oryctolagus cuniculus; assay: Maximum rate of ADP induced platelet aggregation was determined in rabbit blood at a dose of 10-6 mol/L (in vitro); assay type: functional
Where a SMILES comes first, the peptide text is derived from it. The star is where a group is joined. X1 = CC1(C)N(O)C(c2ccc(OCC(=O)*)cc2)=[N+]([O-])C1(C)C
Below, each of the molecules is paired with its reported Am value.
Outcome measure: Am (%)

{"Molecule": "CC1(C)N(O)C(c2ccc(OCC(=O)N[C@@H](CCCN=C(N)N)C(=O)NCC(=O)N[C@@H](CC(=O)O)C(=O)N[C@@H](CO)C(=O)O)cc2)=[N+]([O-])C1(C)C (X1-RGDS-OH)", "Experimental result": 40.05}
{"Molecule": "CC1(C)N(O)C(c2ccc(OCC(=O)N[C@@H](CCCN=C(N)N)C(=O)NCC(=O)N[C@@H](CC(=O)O)C(=O)N[C@@H](Cc3ccccc3)C(=O)O)cc2)=[N+]([O-])C1(C)C (X1-RGDF-OH)", "Experimental result": 20.66}
{"Molecule": "CC(C)[C@H](NC(=O)[C@H](CC(=O)O)NC(=O)CNC(=O)[C@H](CCCN=C(N)N)NC(=O)COc1ccc(C2=[N+]([O-])C(C)(C)C(C)(C)N2O)cc1)C(=O)O (X1-RGDV-OH)", "Experimental result": 24.99}
{"Molecule": "CC(=O)Oc1ccccc1C(=O)O [ASPIRIN]", "Experimental result": 42.58}
{"Molecule": "N=C(N)NCCC[C@H](N)C(=O)NCC(=O)N[C@@H](CC(=O)O)C(=O)N[C@@H](Cc1ccccc1)C(=O)O (H-RGDF-OH)", "Experimental result": 24.15}
{"Molecule": "CC1(C)N(O)C(c2ccc(OCC(=O)O)cc2)=[N+]([O-])C1(C)C", "Experimental result": 51.96}
{"Molecule": "CC(C)[C@H](NC(=O)[C@H](CC(=O)O)NC(=O)CNC(=O)[C@@H](N)CCCNC(=N)N)C(=O)O (H-RGDV-OH)", "Experimental result": 28.9}
{"Molecule": "N=C(N)NCCC[C@H](N)C(=O)NCC(=O)N[C@@H](CC(=O)O)C(=O)N[C@@H](CO)C(=O)O", "Experimental result": 40.14}
